Please respond with reported activation at 0.1 µM for every item in the list.
# System: α5 subtype containing GABA-A receptors (Homo sapiens, UniProt P18507+P31644)
# Construct: expressed in transfected cells; host or cells: Xenopus laevis oocytes, cRNA injected
# Sequence (P31644 32-462): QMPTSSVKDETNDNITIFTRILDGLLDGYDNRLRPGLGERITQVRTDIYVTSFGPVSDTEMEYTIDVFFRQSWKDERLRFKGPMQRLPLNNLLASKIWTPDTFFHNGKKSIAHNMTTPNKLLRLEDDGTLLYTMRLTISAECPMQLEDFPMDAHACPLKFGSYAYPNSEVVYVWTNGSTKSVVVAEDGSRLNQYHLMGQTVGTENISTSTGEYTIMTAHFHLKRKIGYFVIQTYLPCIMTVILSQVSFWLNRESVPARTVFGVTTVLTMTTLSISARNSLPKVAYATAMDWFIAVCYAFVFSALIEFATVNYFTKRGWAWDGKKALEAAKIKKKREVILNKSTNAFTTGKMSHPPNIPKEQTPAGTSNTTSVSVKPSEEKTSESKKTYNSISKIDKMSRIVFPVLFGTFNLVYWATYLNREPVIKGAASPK
# Sequence (P28472 26-473 partner): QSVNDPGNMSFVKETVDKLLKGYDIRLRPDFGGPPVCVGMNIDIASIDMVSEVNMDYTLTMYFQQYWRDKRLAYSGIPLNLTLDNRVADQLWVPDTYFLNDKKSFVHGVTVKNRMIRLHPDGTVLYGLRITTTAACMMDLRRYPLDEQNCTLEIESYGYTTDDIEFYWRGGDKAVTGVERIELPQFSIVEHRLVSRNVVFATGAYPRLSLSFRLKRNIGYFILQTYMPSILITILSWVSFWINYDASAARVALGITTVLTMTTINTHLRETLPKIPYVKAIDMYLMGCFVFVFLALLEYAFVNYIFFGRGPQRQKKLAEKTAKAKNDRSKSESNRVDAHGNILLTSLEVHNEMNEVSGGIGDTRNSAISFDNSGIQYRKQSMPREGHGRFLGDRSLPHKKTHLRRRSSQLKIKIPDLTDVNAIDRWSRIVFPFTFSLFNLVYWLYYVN
# Sequence (P18507 40-475): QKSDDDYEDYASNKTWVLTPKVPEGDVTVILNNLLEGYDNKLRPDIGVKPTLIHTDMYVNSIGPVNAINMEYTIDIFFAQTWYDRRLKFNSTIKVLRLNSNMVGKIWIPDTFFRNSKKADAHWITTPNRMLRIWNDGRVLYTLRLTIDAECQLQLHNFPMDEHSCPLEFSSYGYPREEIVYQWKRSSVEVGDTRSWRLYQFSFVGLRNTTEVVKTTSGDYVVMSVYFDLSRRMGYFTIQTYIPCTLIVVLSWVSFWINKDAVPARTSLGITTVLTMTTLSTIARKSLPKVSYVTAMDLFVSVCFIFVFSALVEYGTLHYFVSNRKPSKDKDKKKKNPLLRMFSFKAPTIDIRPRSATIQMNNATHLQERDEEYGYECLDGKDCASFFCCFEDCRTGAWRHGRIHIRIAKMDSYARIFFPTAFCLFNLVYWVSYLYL
# Method: Two-electrode voltage clamp electrophysiology in Xenopus oocytes, potentiation of GABA EC20 response, α5
# Assay type: cell-based
# Assay Context: 100 nM compound, read-out: Percentage of potentiation alpha5

Record excerpt, results attached:
{"Molecule": "Cc1nnc(Cc2c(-c3ccccc3)nc3ccc(Cl)cn23)o1 [Compound 205]", "activation at 0.1 µM": "-10 to 10%"}
{"Molecule": "Clc1ccc(-c2nc3ccccn3c2Cc2nnc(-c3ccccn3)[nH]2)cc1 [Compound 230]", "activation at 0.1 µM": "10 to 50%"}
{"Molecule": "CNc1ccn(Cc2c(-c3ccc(Cl)cc3)nc3ccccn23)c(=O)n1 [Compound 133]", "activation at 0.1 µM": "-10 to 10%"}

[ask] // activation at 0.1 µM lookup, key: Cc1ccnc(NCc2c(-c3ccccc3)nc3ccc(Cl)cn23)n1 [Compound 158]
[reply] -10 to 10%

Data provenance is patent US8497278B2.
